- target_under_test: Rhodesain (Trypanosoma brucei rhodesiense) (UniProt Q95PM0)
- Sequence (Q95PM0 1-450): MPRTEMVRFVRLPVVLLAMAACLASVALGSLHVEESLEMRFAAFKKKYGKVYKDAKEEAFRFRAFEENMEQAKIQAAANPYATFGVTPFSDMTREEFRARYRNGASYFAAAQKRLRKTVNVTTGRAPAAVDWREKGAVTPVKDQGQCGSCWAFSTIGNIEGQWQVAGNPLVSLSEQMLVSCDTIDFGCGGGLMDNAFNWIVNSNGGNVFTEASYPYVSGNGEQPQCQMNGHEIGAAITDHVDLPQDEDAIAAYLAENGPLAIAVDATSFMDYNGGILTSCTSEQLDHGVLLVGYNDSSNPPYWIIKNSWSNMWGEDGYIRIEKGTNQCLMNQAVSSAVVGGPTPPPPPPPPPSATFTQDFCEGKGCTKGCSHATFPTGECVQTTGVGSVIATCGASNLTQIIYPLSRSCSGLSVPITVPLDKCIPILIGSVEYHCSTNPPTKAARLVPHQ
- assay_notes: Inhibition of recombinant Trypanosoma brucei rhodesain expressed in Pichia pastoris at 5 uM using Z-FR-AMC as substrate preincubated for 10 mins followed by substrate addition and measured at 12 sec interval for 5 mins by fluorimetric analysis relative to control
- test_settings: time 15.0 min
Below: a set of entries, each annotated with reported inhibition.
measure: inhibition

1. O=C(Nc1ccc(-c2nc3ccccc3[nH]2)cc1)c1ccc(Cl)c(Cl)c1 : 18.3%
2. COc1ccc(/C=C2/SC(=Nc3ccccc3)NC2=O)cc1 : 70.5%
3. COc1ccc2sc(N(Cc3cccnc3)C(=O)c3ccc(C#N)cc3)nc2c1 : 76.9%
4. COc1ccc(CNC(=O)c2cc3c(=O)n4ccccc4nc3n(CCc3ccccc3)c2=N)cc1 : 66.9%
5. COc1cc2c3cc1Oc1c(OC)c(OC)cc4c1C(Cc1ccc(O)c(c1)Oc1ccc(cc1)CC3N(C)CC2)N(C)CC4 (configuration not stated) : 51.4%
6. COCCNC(=O)c1ccc(OC2CCN(Cc3ccc(F)c(F)c3)CC2)c(Cl)c1 : 83.8%
7. CN(N=O)C1=C(NC2CCCCC2)C(=O)c2ccccc2C1=O : 39.5%
8. CCCc1c(CC)c(=N)c2ccccc2n1C : 59.5%
9. CCN(CC)CCNc1ncnc2c1[nH]c1ccc(Br)cc12 : 2.7%
10. COc1ccc(/C=C2/SC(Nc3ccc(F)cc3)=NC2=O)c(OC)c1 : 54.8%
11. Cl.Cl.Clc1cc(Br)ccc1-c1ccc(CNCC2CCNCC2)o1 : 49.6%
12. Cc1nc2ccccc2c(O)c1CC=C(Cl)Cl : 77.1%
13. Cc1ccc(N2C(=O)C3C(C2=O)C2(c4ccccc4)C(=O)C3(c3ccccc3)C(c3ccccc3)=C2c2ccccc2)cc1 (configuration not stated) : 56.3%
14. COc1ccc(C2c3ccc4ccccc4c3Oc3ncn(CCCn4ccnc4)c(=N)c32)cc1OC (configuration not stated) : 41%
15. c1ccc(-c2ccc(-c3nc4ccccc4[nH]3)cc2)cc1 : 52.9%
16. CCOC(=O)c1cnc2ccc(CC)cc2c1O : 52.4%
17. Fc1ccc2[nH]c3c(NCCCN4CCOCC4)ncnc3c2c1 : 41.6%
18. FC(F)(F)c1cccc(CNC2CCN(CCc3ccccc3)CC2)c1 : 70.8%
19. Cc1ccnc(NC(c2cccc(OCc3ccccc3)c2)c2ccc3cccnc3c2O)c1 (configuration not stated) : 16.2%
20. COc1cc(C(=O)ON=C(N)Cc2cccc3ccccc23)cc(OC)c1OC : 46.8%
21. COc1ccc(-c2nc3cc(Cc4ccc5[nH]c(-c6ccc(OC)cc6)nc5c4)ccc3[nH]2)cc1 : 98.7%
22. COc1ccc(C(=O)NC(c2ccccc2Cl)c2cc(Cl)c3cccnc3c2O)cc1 (configuration not stated) : 49.4%

---

- target_under_test: cathepsin S (Homo sapiens)
- Sequence (P25774 whole entry): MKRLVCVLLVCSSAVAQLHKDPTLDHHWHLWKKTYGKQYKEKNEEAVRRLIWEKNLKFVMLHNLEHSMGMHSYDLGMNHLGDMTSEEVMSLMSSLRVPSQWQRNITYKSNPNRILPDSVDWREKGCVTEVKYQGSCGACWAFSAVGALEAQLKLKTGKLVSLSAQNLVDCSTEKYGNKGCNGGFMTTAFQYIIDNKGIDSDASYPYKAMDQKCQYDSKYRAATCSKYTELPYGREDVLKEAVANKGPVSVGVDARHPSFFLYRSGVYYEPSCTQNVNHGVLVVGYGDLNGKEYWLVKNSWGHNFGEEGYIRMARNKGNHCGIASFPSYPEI
- assay_notes: Inhibition of recombinant human cathepsin S expressed in Escherichia coli at 50 uM using Z-VVR-AMC as substrate and measured after 15 mins without preincubation by microplate reader based assay relative to control
- test_settings: probe Z-VVR-AMC
measure: inhibition at 0.25 h, 50 µM (%)

1) c1ccc(CNc2nc(Nc3ccccc3)nc3ccccc23)cc1 : 14.8

---

- target_under_test: UniProt P25774
- assay_notes: Inhibition of recombinant human cathepsin S expressed in Escherichia coli at 1 uM using Z-VVR-AMC as substrate preincubated for 10 mins followed by substrate addition and measured after 15 mins by microplate reader based assay relative to control
- test_settings: probe Z-VVR-AMC, in the assay text read “preincubated for 5 mins” for “preincubated for 10 mins”, time 20 min
measure: inhibition at 0.25 h, 1 µM

1. CC(C)C[C@H](NC(=O)[C@H]1O[C@@H]1C(=O)O)C(=O)NCCCCN=C(N)N : 99.9%
